Biological target: T1, 14‐3‐3 SFN, tag cleaved, for affinity measurements (human)
T1 chain: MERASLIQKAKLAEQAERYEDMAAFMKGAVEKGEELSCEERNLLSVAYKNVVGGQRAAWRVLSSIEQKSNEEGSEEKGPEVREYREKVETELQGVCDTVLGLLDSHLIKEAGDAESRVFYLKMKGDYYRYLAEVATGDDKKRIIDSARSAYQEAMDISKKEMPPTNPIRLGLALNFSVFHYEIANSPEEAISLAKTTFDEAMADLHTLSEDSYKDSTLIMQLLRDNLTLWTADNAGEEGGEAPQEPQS
Assay: fluorescence polarisation; competition: unlabelled peptide in serial dilution displaces a FITC-labelled probe peptide from the bait domain (master mix with protein at four times the KD of the probe, 10 nM probe, 2 mM DTT); 50 mM KPO4 or NaPO4 pH 7.5; triplicates; probe for KEAP1 Kelch: FITC-NFE2L1 228-243, other probes in Dataset EV6
Conditions: both partners purified
pKi: −log10 of the molar value.
readout_name: pKi

{"binder": "PSWLADIPPWVPKDRP (microtubule-associated protein 1A, human, residues 1836-1851; source: synthetic peptide, bought: GeneCust) [MAP1A_(1836–1851) peptide, synthetic]", "measured_number": 3.45}
